- method.description: chemical genetic growth profiling, strain panel (AID 1159580);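 further: tested at 20 µM; growth read once vehicle control cultures reached saturation at 30 °C; 1 = growth at the plate median or of vehicle wells; lower values mean less growth of the strain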
- condition.set: S. cerevisiae deletion strains, growth OD, locus YPL055C, strain LGE1
The whole screen tested about 5,500 compounds, of which about 2,000 (36%) were called active. Inconclusive results (about 18%) are left out. No stated cut-off is given here; in the data, active means normalized growth mostly below about 0.91 (no sharp cut-off); inconclusive means no clear call, values can overlap the other calls; inactive means mostly above about 0.92. Some of the results follow.
Classes used: yes for active, no for inactive

[
  {
    "molecule": "O=C(O)c1cc(=O)cc(C(=O)O)[nH]1",
    "category": "no"
  },
  {
    "molecule": "Nc1cccc2c1C(=O)c1ccccc1-2",
    "category": "yes"
  },
  {
    "molecule": "CCOC(=O)c1cnc(SCC(=O)c2ccc(Cl)cc2Cl)[nH]1",
    "category": "no"
  },
  {
    "molecule": "CNC(=O)Oc1ccccc1OC(C)C",
    "category": "no"
  },
  {
    "molecule": "N#CCC(=O)N(Cc1ccccc1F)C(=O)NC1CCCCC1",
    "category": "no"
  },
  {
    "molecule": "CC(=O)OC[C@@]1(O)C[C@@]23CCC4c5ccoc5CC[C@]4(C)C2CC[C@@H]1C3 (stereo partly specified)",
    "category": "no"
  },
  {
    "molecule": "Cn1c(=O)c2c(ncn2CCO)n(C)c1=O",
    "category": "no"
  },
  {
    "molecule": "CCOC(=O)CCC(C#N)(c1ccc(Cl)cc1)N1CCOCC1 (stereo unspecified)",
    "category": "no"
  },
  {
    "molecule": "CCOC(=O)CC(=O)CSc1nnc(N)s1",
    "category": "no"
  },
  {
    "molecule": "CON",
    "category": "no"
  },
  {
    "molecule": "COc1cc(O)ccc1C(C)=O",
    "category": "no"
  },
  {
    "molecule": "COc1cc([C@@H]2c3cc4c(cc3[C@H](O)[C@H]3COC(=O)[C@H]23)OCO4)cc(OC)c1OC",
    "category": "no"
  },
  {
    "molecule": "CCCc1ccc(-c2nc(-c3ccc(C)cc3)no2)cc1",
    "category": "no"
  },
  {
    "molecule": "C=C[C@H]1CN2CC[C@H]1C[C@H]2[C@H](O)c1ccnc2ccccc12",
    "category": "no"
  },
  {
    "molecule": "Cn1c(=O)c2c(nc(/C=C/c3cccc(Cl)c3)n2C)n(C)c1=O",
    "category": "no"
  },
  {
    "molecule": "O=C1NCCN=C(c2ccccc2)c2ccccc21",
    "category": "no"
  },
  {
    "molecule": "Cc1cc(N=C(N)N=C(N)N)no1",
    "category": "no"
  },
  {
    "molecule": "CC(C)N1C(=O)c2ccccc2NS1(=O)=O",
    "category": "no"
  },
  {
    "molecule": "COc1ccc(/C=C2/C(=O)N(c3cccc(Cl)c3)N=C2C)cc1",
    "category": "no"
  },
  {
    "molecule": "COc1cc2cccc(OC)c(=O)c2c(OC)c1OC",
    "category": "no"
  },
  {
    "molecule": "Cn1c(=O)[nH]c2ncn(C)c2c1=O",
    "category": "no"
  },
  {
    "molecule": "NC(N)=NCc1cccc(I)c1",
    "category": "no"
  },
  {
    "molecule": "CN1CCC[C@H]1c1cccnc1",
    "category": "no"
  },
  {
    "molecule": "C=CC1CN2CCC1CC2C(OC(C)=O)c1ccnc2ccc(OC)cc12 (stereo unspecified)",
    "category": "no"
  },
  {
    "molecule": "COc1cc(OC)c2c(OC)c(-c3ccc4c(c3)OCO4)c(=O)oc2c1",
    "category": "no"
  },
  {
    "molecule": "CC(=O)CCCCn1c(=O)c2c(ncn2C)n(C)c1=O",
    "category": "no"
  }
]

----------
- method.description: chemical genetic growth profiling, strain panel (AID 1159580);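 further: tested at 20 µM; growth read once vehicle control cultures reached saturation at 30 °C; 1 = growth at the plate median or of vehicle wells; lower values mean less growth of the strain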
- condition.set: S. cerevisiae deletion strains, growth OD, locus YLR357W, strain rsc2, active compounds read low
Among all 5,500 compounds or so, about 2,000 (36%) were called active. Inconclusive results (about 18%) are left out. This is one part of the list.

[
  {
    "molecule": "CC(=O)Oc1c(C)c(C)c2c(c1C)CCC(C)(CCCC(C)CCCC(C)CCCC(C)C)O2 (configuration not stated)",
    "normalized growth": 1.01
  },
  {
    "molecule": "CC(=O)Nc1c(I)cc(I)c(C(=O)O)c1I",
    "normalized growth": 1
  },
  {
    "molecule": "COc1ccc(-c2c(O)c3c(OC)c4c(cc3oc2=O)OC(C)(C)C=C4)cc1",
    "normalized growth": 1
  },
  {
    "molecule": "Cn1c(=O)[nH]c2ncn(C)c2c1=O",
    "normalized growth": 0.97
  },
  {
    "molecule": "COc1cc(O)ccc1C(C)=O",
    "normalized growth": 1.01
  },
  {
    "molecule": "CC(C)[C@@H]1CC[C@@H](C)C[C@H]1OC(=O)c1ccccc1",
    "normalized growth": 1.01
  },
  {
    "molecule": "CC(=O)NS(=O)(=O)c1ccc(N)cc1",
    "normalized growth": 1.04
  },
  {
    "molecule": "O=C(/C=C/c1ccc(O)cc1)c1ccc(O)cc1O",
    "normalized growth": 0.997
  },
  {
    "molecule": "O=C(Nc1ccc([N+](=O)[O-])cc1Cl)c1cc(Cl)ccc1O",
    "normalized growth": 1.02
  },
  {
    "molecule": "CNC(C)(C)Cc1ccccc1",
    "normalized growth": 0.988
  },
  {
    "molecule": "NC(Cc1ccc(Cl)cc1)C(=O)O (configuration not stated)",
    "normalized growth": 0.977
  },
  {
    "molecule": "CC(=O)c1c(O)cc(O)cc1O",
    "normalized growth": 0.982
  },
  {
    "molecule": "COc1ccc(CC(=O)c2ccc(O)cc2O)cc1",
    "normalized growth": 1.01
  },
  {
    "molecule": "O=C(c1ccccc1)c1ccc2n1CCC2C(=O)O (configuration not stated)",
    "normalized growth": 1.02
  },
  {
    "molecule": "O=C(O)c1cccnc1C(=O)O",
    "normalized growth": 0.987
  },
  {
    "molecule": "COc1cc(Cc2cnc(N)nc2N)cc(OC)c1OC",
    "normalized growth": 0.998
  },
  {
    "molecule": "CC(=CC1CCC(C)C2C1=C(C)CC2O)C(=O)O (configuration not stated)",
    "normalized growth": 0.995
  },
  {
    "molecule": "CC(=CC1CCC(C)C2CCC(C)=C12)C(=O)O (configuration not stated)",
    "normalized growth": 1.01
  },
  {
    "molecule": "COc1ccc([C@@H](C)C(=O)c2ccc(O)cc2O)cc1",
    "normalized growth": 1.03
  },
  {
    "molecule": "CCCc1ncc(C[n+]2ccccc2C)c(N)n1",
    "normalized growth": 0.977
  },
  {
    "molecule": "CCC1(C2=NCCN2)Cc2ccccc2O1 (configuration not stated)",
    "normalized growth": 1.01
  },
  {
    "molecule": "CC(=O)OCC1=C(C(=O)O)N2C(=O)[C@@H](NC(=O)CSc3ccncc3)[C@H]2SC1",
    "normalized growth": 1.05
  },
  {
    "molecule": "Oc1cc2c(cc1O)C(c1ccccc1)CNCC2 (configuration not stated)",
    "normalized growth": 1.04
  },
  {
    "molecule": "O=C(/C=C/c1ccc(O)cc1)c1ccccc1O",
    "normalized growth": 0.726
  },
  {
    "molecule": "O=C(O)c1cc(=O)c2ccccc2[nH]1",
    "normalized growth": 0.936
  },
  {
    "molecule": "O=C(O)[C@H]1/C(=C/CO)O[C@@H]2CC(=O)N21",
    "normalized growth": 0.931
  },
  {
    "molecule": "CC(=O)OC[C@@]1(O)C[C@@]23CCC4c5ccoc5CC[C@]4(C)C2CC[C@@H]1C3 (some centres not stated)",
    "normalized growth": 0.963
  },
  {
    "molecule": "O=C(O)C1=C(CSc2nnnn2CS(=O)(=O)O)CS[C@@H]2C(NC(=O)[C@H](O)c3ccccc3)C(=O)N12 (some centres not stated)",
    "normalized growth": 1
  },
  {
    "molecule": "COC(=O)C[C@H]1C(C)(C)[C@@H](OC(C)=O)[C@@H]2CC3=C4CC(=O)O[C@@H](c5ccoc5)[C@]4(C)CCC3[C@@]1(C)C2=O (some centres not stated)",
    "normalized growth": 1.01
  },
  {
    "molecule": "CNC(=O)N(C)c1nnc(C(C)(C)C)s1",
    "normalized growth": 0.972
  },
  {
    "molecule": "CC(=O)NC1C(O)OC(COS(=O)(=O)O)C(OC2OC(C(=O)O)C(OC3OC(CO)C(OC4OC(C(=O)O)C(O)C(O)C4OS(=O)(=O)O)C(OS(=O)(=O)O)C3NS(=O)(=O)O)C(O)C2OS(=O)(=O)O)C1O (configuration not stated)",
    "normalized growth": 0.964
  },
  {
    "molecule": "COc1ccccc1OCC(O)COC(N)=O (configuration not stated)",
    "normalized growth": 0.963
  },
  {
    "molecule": "CCC[C@@H]1C[C@@H](C(=O)N[C@H]([C@H]2O[C@H](SC)[C@H](O)[C@@H](O)[C@H]2O)[C@H](C)O)N(C)C1",
    "normalized growth": 1
  },
  {
    "molecule": "CN1CCC[C@H]1c1cccnc1",
    "normalized growth": 1.04
  },
  {
    "molecule": "CC(=O)CCCCn1c(=O)c2c(ncn2C)n(C)c1=O",
    "normalized growth": 1.07
  },
  {
    "molecule": "O=C(O)CC[N+](=O)[O-]",
    "normalized growth": 0.993
  },
  {
    "molecule": "O=C1c2ccccc2C(=O)c2ccccc21",
    "normalized growth": 0.976
  },
  {
    "molecule": "CC1CC(OC(=O)c2ccccc2O)CC(C)(C)C1 (configuration not stated)",
    "normalized growth": 0.975
  },
  {
    "molecule": "ClC1C(Cl)C(Cl)C(Cl)C(Cl)C1Cl (configuration not stated)",
    "normalized growth": 0.996
  },
  {
    "molecule": "CC(NC(C)(C)C)C(=O)c1cccc(Cl)c1 (configuration not stated)",
    "normalized growth": 0.983
  },
  {
    "molecule": "O=C(CCc1ccc(O)cc1)c1c(O)cc(O)cc1O",
    "normalized growth": 0.955
  },
  {
    "molecule": "CCCCN(CC)c1c([N+](=O)[O-])cc(C(F)(F)F)cc1[N+](=O)[O-]",
    "normalized growth": 1.03
  },
  {
    "molecule": "O=C(/C=C/c1ccccc1)c1ccc(O[C@@H]2O[C@H](CO)[C@@H](O)[C@H](O)[C@H]2O)cc1O",
    "normalized growth": 0.929
  },
  {
    "molecule": "CC(=O)c1ccc[nH]1",
    "normalized growth": 0.971
  },
  {
    "molecule": "COc1cc(OC)c2c(OC)c(-c3ccc4c(c3)OCO4)c(=O)oc2c1",
    "normalized growth": 0.997
  },
  {
    "molecule": "Cn1c(=O)c2c(ncn2CCO)n(C)c1=O",
    "normalized growth": 1
  },
  {
    "molecule": "COc1cc([C@@H]2c3cc4c(cc3[C@H](O)[C@H]3COC(=O)[C@H]23)OCO4)cc(OC)c1OC",
    "normalized growth": 1.05
  }
]

All values here come from PubChem BioAssay AID1159580.
